- Test system: U251 CNS
- test.name: NCI-60 one-dose screen, 48 h (100 = growth as untreated, 0 = no growth, -100 = all killed)
- test.settings: 10 µM unless noted
The panel holds about 83,000 compounds, 20% with a hit somewhere; the sample as a whole holds those more often.
reported.endpoint: growth (%)
Give bare numbers, in %.

Recorded results for 2 compounds are shown here.
1) CCCc1cc(=O)oc2c3c(c4c(c12)OC(C)(C)CC4)OC(C)[C@H](C)[C@@H]3O (stereo partly drawn)	75.1
2) CC(O)C(O)C(O)C(O)C(O)C(=O)NNc1ccccc1 (stereo not drawn)	97.6

Below is a list of compounds. For each, state its recorded growth.
1. CCCCCCCCCCCC[n+]1ccc(CCCCCCCCC)cc1
2. Cc1cc(Br)c2nsnc2c1[N+](=O)[O-]
3. CCNc1nnnn1CC

[-94.6, 36.9, 106]

Below is a list of compounds. For each, state its recorded growth.
1. CCN(CC)c1ccc(/C=C\C(=O)c2ccc(NC(C)=O)cc2)cc1
2. CCCN(CCC)C(=O)c1ccc(C)cc1
3. NNc1ccc(Cl)cc1Cl
4. CC(=O)C1Cc2ccccc2C1=O (stereo not drawn)

[41.9, 85.5, 76.4, 103]

Below is a list of compounds. For each, state its recorded growth.
1. CCOc1ccc(C(C[N+](=O)[O-])Sc2ccccc2N)cc1 (stereo not drawn)
2. S=C(SSC(=S)N1CCOCC1)N1CCOCC1
3. O=C(CCl)N1c2ccccc2Sc2c1ccc1ccccc21
4. CN(C)c1ccc(/C=C/c2ccnc3ccccc23)cc1

9.82
58.1
63.8
38.3

---

- System: NCI-H226 lung
- test.name: NCI-60 one-dose screen, 48 h
- test.settings: 10 µM unless noted
About 83,000 compounds went through this panel and 20% of them were active in at least one assay; those are over-represented in the sample as a whole. Active and inactive are the calls of the source. Rule for the calls: active = growth percent below 10; inactive = the rest.
Valid outcomes are listed here; reply with one: t for active, f for inactive

Known results for compounds:
1) O=C(Nc1ccc(Cl)c(Cl)c1)Nc1ccccc1O	f
2) c1ccc(C2NCCNC2c2ccccc2)cc1 (configuration not stated)	f
3) [Cl-].[Rh+3].c1ccc(-c2ccnc3c2ccc2c(-c4ccccc4)ccnc23)cc1.c1ccc(-c2ccnc3c2ccc2c(-c4ccccc4)ccnc23)cc1.c1ccc(-c2ccnc3c2ccc2c(-c4ccccc4)ccnc23)cc1	f
4) O=C(c1ccccc1)C(Br)C(Br)c1ccccc1 (configuration not stated)	f
5) CCCCC(C=O)(C=C=C(C)C)CC (configuration not stated)	f

We now examine a further compound.
For this compound, state the assay outcome: O=C1c2ccccc2C(=O)c2c(O)c(Cl)cc(O)c21
f

---

- Tested on: SR leukemia
- test.name: NCI-60 one-dose screen, 48 h (100 = growth as untreated, 0 = no growth, -100 = all killed)
- test.settings: 10 µM unless noted
The panel holds about 83,000 compounds, 20% with a hit somewhere; the sample as a whole holds those more often. The source made the active and inactive calls. Rule for the calls: active = growth percent below 10; inactive = the rest.
reported.endpoint: growth

1. CN(Cc1ccccc1)c1ccc(SC#N)cc1	-6.68% (active)

Below is a list of compounds. For each, state its recorded growth.
1. O=C(CBr)c1ccc(OC(=O)c2ccccc2)cc1
2. Cc1ccc(/C=C2\CNC/C(=C\c3ccc(C)cc3)C2=O)cc1
3. Cn1ccc(=Nc2ccc(NC(=O)c3ccc(N=c4ccn(C)c5ccc([N+](=O)[O-])cc45)cc3)cc2)cc1
4. Cc1ccc(NC2=CC(=O)C(=O)c3ccccc32)cc1
5. O=C(/C=C/C(Cl)(Cl)Cl)Nc1ccc(Cl)cc1
6. O=C(Nc1ccc(Cl)c(Cl)c1)OCc1ccco1

88.6% (inactive)
-2.99% (active)
107% (inactive)
25.9% (inactive)
40.1% (inactive)
25.7% (inactive)

Below is a list of compounds. For each, state its recorded growth.
1. O=[N+]([O-])/C(=C/c1ccccc1)c1ccccc1
2. Cc1c(O)ccc(SC#N)c1C
3. CC12CCC(O)CC1=CCC1C2CCC2(C)C3=NN=CC3CC12 (stereo not drawn)
4. Cc1ccccc1N=C(N)Nc1ccccc1C (tested in a mixture with another compound)

1. 88.5% (inactive)
2. 105% (inactive)
3. 60.1% (inactive)
4. 49.6% (inactive)

Below is a list of compounds. For each, state its recorded growth.
1. CCC[CH2][Sn]1([CH2]CCC)[O]C2C(CO)OC(n3ccc(N)nc3=O)C2[O]1 (stereo not drawn)
2. COC(=O)c1ccc(=O)c2nc3/c(=C/O)c(O)cc(=O)c3[nH]c12
3. CCCCCCCCCCCCCCCC[N+]1(C)CCCC1c1cccnc1 (stereo not drawn)
4. c1ccc(-c2cc3cc4ccccc4cn3c2)cc1
5. CN(C)c1ccc(/C=C/c2sc3ccc4ccccc4c3[n+]2C)cc1
6. C/C(=N\NC(=S)N1CC2CCC(CC2)C1)c1ccccn1

1. -30.5% (active)
2. -11.4% (active)
3. 42.7% (inactive)
4. 67.4% (inactive)
5. -30.7% (active)
6. -10.1% (active)
